pIC50: −log10 of the molar value.
Before we begin, note that these pIC50 values for RAC-beta serine/threonine-protein kinase (Homo sapiens) originate from several publications.

CN(C)C[C@H](Cc1cccc(F)c1)N1Cc2cc(-c3c(Cl)cnn3C)ccc2C1=O	< 5.30
NCc1ccc(-c2nc3c(cc2-c2ccccc2)N(CC2CC2)C(=O)CO3)cc1	5.00 to 6.00
NC[C@H](Cc1ccc(F)cc1F)NC(=O)c1cc2c(s1)CCCn1ncc(Cl)c1-2	7.11

Reading of pIC50 for C[C@]1(O)C[C@@](N)(c2ccc(-c3nc4c(cc3-c3ccccc3)N(CC#N)C(=O)CO4)cc2)C1 with RAC-beta serine/threonine-protein kinase (Homo sapiens): ≥ 7.00

Response field pIC50 (RAC-beta serine/threonine-protein kinase (Homo sapiens)) for item NC1(c2ccc(-c3nc4c(cc3-c3ccccc3)-c3ncncc3CC4)cc2)CCC1 : 6.00 to 7.00

Reported pIC50 (RAC-beta serine/threonine-protein kinase (Homo sapiens)) for entry NC[C@H](Cc1cccc(Cl)c1)NC(=O)c1cc2c(s1)CCCn1ncc(Cl)c1-2 is 7.49

The measured pIC50 that CCCc1nnc2n1-c1cc(-c3ccccc3)c(-c3ccc(C4(N)CCC4)cc3)nc1OC2 showed for RAC-beta serine/threonine-protein kinase (Homo sapiens) is 6.00 to 7.00

pIC50 value, target or system RAC-beta serine/threonine-protein kinase (Homo sapiens), for C#Cc1cccc(C[C@@H](CN)N2Cc3cc(-c4ccnn4C)ccc3C2=O)c1 : > 6.30

----------
// compounds with IC50 on RAC-beta serine/threonine-protein kinase (Homo sapiens, UniProt P31751), multi-source literature

For orientation, consider the following solved cases.
CN1C(=O)COc2nc(-c3ccc(C4(N)CC4)cc3)c(-c3ccccc3)cc21	1000 to 10000 nM
CCNC[C@H](Cc1cccc(F)c1)N1Cc2cc(-c3c(Cl)cnn3C)ccc2C1=O	500 to 5000 nM
Cn1ncc(-c2ccc(F)nc2)c1-c1ccc2c(c1)CN([C@H](CN)Cc1cccc(F)c1)C2=O	> 5000 nM
CS(=O)(=O)CN1C(=O)COc2nc(-c3ccc(C4(N)CCC4)cc3)c(-c3ccccc3)cc21	≤ 100 nM
NC1(c2ccc(-c3nc4c(cc3-c3ccccc3)-c3n[nH]c(N5CCOCC5)c3CC4)cc2)CCC1	100 to 1000 nM
Cn1ncc(Cl)c1-c1cc2c(cn1)C(=O)N([C@H](CN)Cc1cccc(F)c1)C2	< 500 nM
NC[C@H](Cc1cccc(F)c1)NC(=O)c1cc2c(s1)C(=O)CCn1ncc(Cl)c1-2	3130 nM
Cn1cc(N2C(=O)COc3nc(-c4ccc(C5(N)CCC5)cc4)c(-c4ccccc4)cc32)cn1	1000 to 10000 nM

# value of IC50, RAC-beta serine/threonine-protein kinase (Homo sapiens, UniProt P31751), item O=C(c1ccc2cc[nH]c2c1)N1CCN(c2ncnc3[nH]nc(Br)c23)CC1 = > 2000 nM

RAC-beta serine/threonine-protein kinase (Homo sapiens, UniProt P31751) data for Cn1nccc1-c1ccc2c(c1)CN([C@H](CN)Cc1cccc(F)c1)C2=O ; its IC50: < 500 nM

Case CN1C(=O)COc2nc(-c3ccc(C4(N)CCC4)cc3)c(-c3ccccc3)cc21 , RAC-beta serine/threonine-protein kinase (Homo sapiens, UniProt P31751), IC50 recorded as 100 to 1000 nM

----------
pIC50: −log10 of the molar value.
// cross-study collection: pIC50 for RAC-beta serine/threonine-protein kinase (Homo sapiens, UniProt P31751)

Below are worked cases with known answers.
Cn1ncc2c1-c1cc(-c3ccccc3)c(-c3ccc(C4(N)CCC4)cc3)nc1CC2	5.00 to 6.00
CSCc1cnn(C)c1-c1ccc2c(c1)CN([C@H](CN)Cc1cc(F)cc(F)c1)C2=O	5.30 to 6.30
NC1(c2ccc(-c3nc4c(cc3-c3ccccc3)-n3c(nnc3CC(F)(F)F)CO4)cc2)CCC1	5.00 to 6.00
CN1C(=O)CCNc2nc(-c3ccc(C4(N)CCC4)cc3)c(-c3ccccc3)cc21	5.00 to 6.00

// assay RAC-beta serine/threonine-protein kinase (Homo sapiens, UniProt P31751), entry Cn1ncc(Cl)c1-c1cc2c(cn1)C(=O)N([C@H](CN)CC1CCCCC1)C2 , pIC50 value = > 6.30

GET /values?item= Cn1ncc(-c2cncc(F)c2)c1-c1ccc2c(c1)CN([C@H](CN)Cc1cccc(F)c1)C2=O &system= RAC-beta serine/threonine-protein kinase (Homo sapiens, UniProt P31751) returns pIC50: < 5.30

Measured pIC50 for this entry Clc1ccc(CN2CCN(c3ncnc4[nH]nc(Br)c34)CC2)cc1 on RAC-beta serine/threonine-protein kinase (Homo sapiens, UniProt P31751): < 5.70

Record CN(C)CC(c1ccccc1)N1Cc2cc(-c3c(Cl)cnn3C)ccc2C1=O (centres unmarked) ; system RAC-beta serine/threonine-protein kinase (Homo sapiens, UniProt P31751); pIC50 = < 5.30

Here NC1(c2ccc(-c3nc4c(cc3-c3ccccc3)NC(=O)CO4)cc2)CCC1 was tested on RAC-beta serine/threonine-protein kinase (Homo sapiens, UniProt P31751), and its pIC50 came to 5.00 to 6.00

Value (pIC50, RAC-beta serine/threonine-protein kinase (Homo sapiens, UniProt P31751)) for record CC(C)Cn1nccc1-c1ccc2c(c1)CN([C@H](CN)Cc1cccc(F)c1)C2=O = < 5.30

Let me check: Cn1cc(-c2cccc(C[C@@H](CN)N3Cc4cc(-c5c(Cl)cnn5C)ccc4C3=O)c2)cn1 , system RAC-beta serine/threonine-protein kinase (Homo sapiens, UniProt P31751), measured pIC50 is < 5.30

Result for Cn1nccc1-c1ccc2c(c1)CN([C@H](CN)Cc1ccccc1)C2=O , tested on RAC-beta serine/threonine-protein kinase (Homo sapiens, UniProt P31751), pIC50: > 6.30

pIC50 on RAC-beta serine/threonine-protein kinase (Homo sapiens, UniProt P31751) for COc1ccc(-c2cnn(C)c2-c2ccc3c(c2)CN([C@H](CN)Cc2cccc(F)c2)C3=O)cn1 is < 5.30

# pIC50 measured on RAC-beta serine/threonine-protein kinase (Homo sapiens, UniProt P31751) for item Brc1n[nH]c2ncnc(N3CCN(Cc4cccc5ccccc45)CC3)c12 = < 5.70

pIC50 for RAC-beta serine/threonine-protein kinase (Homo sapiens, UniProt P31751) with input CCONC(=O)c1ccc2c(c1)-c1nc(-c3ccc([C@]4(N)C[C@](C)(O)C4)cc3)c(-c3ccccc3)n1CO2 equals 9.40

Param item: COc1cc(OC)nc(CN2CCN(c3ncnc4[nH]nc(Br)c34)CC2)n1 ; param system: RAC-beta serine/threonine-protein kinase (Homo sapiens, UniProt P31751); output pIC50: < 5.70

Bench note, RAC-beta serine/threonine-protein kinase (Homo sapiens, UniProt P31751): entry Brc1n[nH]c2ncnc(N3CCN(C4CCCCc5ccccc54)CC3)c12 (centres unmarked) , its pIC50 = < 5.70

----------
Below are IC50 values for RAC-beta serine/threonine-protein kinase (Homo sapiens, UniProt P31751) collected from several publications.

The molecule Brc1ccccc1CN1CCN(c2ncnc3[nH]nc(Br)c23)CC1 , when measured on RAC-beta serine/threonine-protein kinase (Homo sapiens, UniProt P31751), yielded IC50 of > 2000 nM

For Cn1ncc(-c2ccccc2)c1-c1ccc2c(c1)CN([C@H](CN)Cc1cccc(F)c1)C2=O on RAC-beta serine/threonine-protein kinase (Homo sapiens, UniProt P31751), measured IC50 was 500 to 5000 nM

IC50 value, target or system RAC-beta serine/threonine-protein kinase (Homo sapiens, UniProt P31751), for CN1C(=O)NCc2nc(-c3ccc(C4(N)CCC4)cc3)c(-c3ccccc3)cc21 : 100 to 1000 nM

For CC(C)Cn1nccc1-c1ccc2c(c1)CN([C@H](CN)Cc1cc(F)cc(F)c1)C2=O on RAC-beta serine/threonine-protein kinase (Homo sapiens, UniProt P31751), measured IC50 was > 5000 nM

----------
Compiled record: IC50 values for RAC-beta serine/threonine-protein kinase (Homo sapiens) across several sources.

Study these solved cases before continuing.
CCN1C(=O)COc2nc(-c3ccc(C4(N)CCC4)cc3)c(-c3ccccc3)cc21	≤ 0.1 µM
Brc1n[nH]c2ncnc(N3CCN(Cc4ncc[nH]4)CC3)c12	> 2 µM
CN(C)C/C=C/C(=O)Nc1cccc(C(=O)Nc2ccc(Nc3nccc(/C(C#N)=C4\Nc5ccccc5S4)n3)cc2)c1	0.0899 µM

Attention now turns to another entry.
For the compound Cn1ncc(COC2CCC2)c1-c1cc2c(cn1)C(=O)N([C@H](CN)Cc1cc(F)cc(F)c1)C2 , the measured IC50 on RAC-beta serine/threonine-protein kinase (Homo sapiens) was < 0.5 µM

----------
// cross-study collection: pIC50 for RAC-beta serine/threonine-protein kinase (Homo sapiens, UniProt P31751)
pIC50: −log10 of the molar value.

Look over these answered cases.
Cn1ncc(F)c1-c1ccc2c(c1)CN([C@H](CN)Cc1cccc(F)c1)C2=O	> 6.30
NC1(c2ccc(-c3nc4c(cc3-c3ccccc3)-n3c(nnc3C(F)F)CO4)cc2)CCC1	6.00 to 7.00
NC[C@H](Cc1cc(F)cc(F)c1)NC(=O)c1cc2c(s1)OCCn1ncc(Br)c1-2	7.41
NC[C@H](Cc1cccc(F)c1)NC(=O)c1cc2c(s1)CCCn1ncc(Br)c1-2	7.96
NC1(c2ccc(-c3nc4c(cc3-c3ccccc3)NC(=O)CCN4)cc2)CCC1	5.00 to 6.00
CC(=O)CN1C(=O)COc2nc(-c3ccc(C4(N)CCC4)cc3)c(-c3ccccc3)cc21	5.00 to 6.00
Brc1n[nH]c2ncnc(N3CCN(Cc4ccc(OCc5ccccc5)cc4)CC3)c12	< 5.70

Attention now shifts to the item below.
# pIC50 of COCCN1CCN(c2ncnc3[nH]nc(Br)c23)CC1 = < 5.70
